The measurements presented in this section are drawn from the Human Domainome abundance scans (Beltran et al. 2025).

Readings of abundance fitness for the listed variants
B1: Gamma-crystallin S, residues 96 to 176; numbered along this chain, P22914 (parent)
chain: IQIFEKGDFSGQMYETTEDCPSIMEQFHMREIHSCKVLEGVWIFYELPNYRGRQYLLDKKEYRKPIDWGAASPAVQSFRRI

- Variants of: B1
- measurementNotes: abundance fitness (aPCA) (normalised: wild type 0, dead -1); higher = more abundant; growth selection in yeast, the domain comes from the species named
- assayContext: Homo sapiens
// print number alone

Solved entries:
seq: IQIFEKGDFSGQMYETTEDCPSIMEQFHMREIHSCKVLEGVWIFYELPNYRGRQYLLDKKEYRKPIDWGAASPAVQSFRRK [I81K]
abundance fitness: -0.186
//
seq: IQIFEKGDFSGQMYETTEDCPSIMEQFHMREIHSCKVLEGVWIFYELPNYRGRQYLLDKLEYRKPIDWGAASPAVQSFRRI [K60L]
abundance fitness: -0.035
//
seq: IQIFEKGDFSGQMYETTEDCPSIMEQFHMREIHSCKVLEGDWIFYELPNYRGRQYLLDKKEYRKPIDWGAASPAVQSFRRI [V41D]
abundance fitness: -0.01
//
seq: IQIFEKGDFSGQMYETTEDCPSIMEQFHMREIHPCKVLEGVWIFYELPNYRGRQYLLDKKEYRKPIDWGAASPAVQSFRRI [S34P]
abundance fitness: -1.08
//
seq: IQIFEKGDFSGQMYETTEDCPSIMEQFHMREIHSCKVHEGVWIFYELPNYRGRQYLLDKKEYRKPIDWGAASPAVQSFRRI [L38H]
abundance fitness: 0.043
//
seq: SQIFEKGDFSGQMYETTEDCPSIMEQFHMREIHSCKVLEGVWIFYELPNYRGRQYLLDKKEYRKPIDWGAASPAVQSFRRI [I1S]
abundance fitness: -0.973
//
seq: INIFEKGDFSGQMYETTEDCPSIMEQFHMREIHSCKVLEGVWIFYELPNYRGRQYLLDKKEYRKPIDWGAASPAVQSFRRI [Q2N]
abundance fitness: 0.124
//
seq: IQIFEKGDFSGQMYETTEDCPSIMEQFHMREIHSCKVLEGVWIFYELPTYRGRQYLLDKKEYRKPIDWGAASPAVQSFRRI [N49T]
abundance fitness: -0.167
//
seq: IQIFEKGDFSGQMYETTPDCPSIMEQFHMREIHSCKVLEGVWIFYELPNYRGRQYLLDKKEYRKPIDWGAASPAVQSFRRI [E18P]
abundance fitness: -0.067
//
seq: IQIFEKGDFSGQMYETTEDCPSIMEQFHMREIHSCKVLEGVWIFYELPNYRGRQYLLDKKEYWKPIDWGAASPAVQSFRRI [R63W]
abundance fitness: 0.065

**Query** Give the value of abundance fitness reported for the following: IQIFEKGDFSVQMYETTEDCPSIMEQFHMREIHSCKVLEGVWIFYELPNYRGRQYLLDKKEYRKPIDWGAASPAVQSFRRI [G11V]
**Result** -0.208

**Query** Look up abundance fitness of IQIFEKGDFSGQMYETTEDCPSIMEQFHMREIHSCKVLEGVWIFYELPNYRGRQYLLDKKEYRKPCDWGAASPAVQSFRRI [I66C] and report it.
**Result** 0.131

**Query** State, in one line, measured abundance fitness of IQIFEKGDFSGQMYETTEDCPSIMEQFHMREMHSCKVLEGVWIFYELPNYRGRQYLLDKKEYRKPIDWGAASPAVQSFRRI [I32M]
**Result** -0.001

**Query** Please look at this variant and report its abundance fitness: IQGFEKGDFSGQMYETTEDCPSIMEQFHMREIHSCKVLEGVWIFYELPNYRGRQYLLDKKEYRKPIDWGAASPAVQSFRRI [I3G]
**Result** -0.716

**Query** Please indicate abundance fitness recorded for IQIFEKGDFSGQMYETTEDCPSIMEQFHMREIHSCKVLEGVWIFYELPNYRGFQYLLDKKEYRKPIDWGAASPAVQSFRRI [R53F]
**Result** -0.055

**Query** Let me know recorded abundance fitness for IQIFEKGDFSGQMYETTSDCPSIMEQFHMREIHSCKVLEGVWIFYELPNYRGRQYLLDKKEYRKPIDWGAASPAVQSFRRI [E18S] , thanks.
**Result** 0.016

**Query** Tell me abundance fitness reported for IQIFEKGDFSGQMYETTEDCPSIMEQFHMREIHSCKVMEGVWIFYELPNYRGRQYLLDKKEYRKPIDWGAASPAVQSFRRI [L38M]
**Result** -0.046
